Numbers sourced from paper PMC6453136.

Target: cAR1 (Dictyostelium discoideum)
Sequence (P13773 whole entry): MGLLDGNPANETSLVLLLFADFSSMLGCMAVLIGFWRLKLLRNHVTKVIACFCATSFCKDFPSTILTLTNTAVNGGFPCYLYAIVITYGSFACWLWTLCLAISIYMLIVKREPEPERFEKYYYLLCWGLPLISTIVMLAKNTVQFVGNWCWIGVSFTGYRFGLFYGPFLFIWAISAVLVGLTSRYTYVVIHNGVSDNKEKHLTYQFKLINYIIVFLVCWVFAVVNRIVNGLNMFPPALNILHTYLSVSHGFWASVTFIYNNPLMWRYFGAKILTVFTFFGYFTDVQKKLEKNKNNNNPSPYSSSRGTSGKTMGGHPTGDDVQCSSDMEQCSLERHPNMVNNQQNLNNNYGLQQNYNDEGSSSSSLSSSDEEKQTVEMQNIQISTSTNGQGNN
Assay: cell-based
EXPERIMENTAL_READOUT: EC50

IN: Entry under review: Nc1ncnc2c1ncn2[C@H]1C[C@H](O)[C@@H](COP(=O)(O)O)O1 [2’-dcAMP, 2’-deoxyadenosine-5’-monophosphate] . Reported EC50?
OUT: ~0.017 µM
